- Test system: SNB-19 CNS
- Run description: NCI tumour cell line growth inhibition, 48 h; in the data active means GI50 below about 0.43 µM; inactive means the rest
Classes to choose from: active, inactive

Example cases with answers are listed next.
Compound: COc1ccc(-c2cncn2-c2cc(OC)c(OC)c(OC)c2)cc1F
Discrete label: active
//
Compound: CCN(CC)c1ccc2nc3c4ccccc4c(=NC(=O)c4ccccc4-c4c5ccc(N(CC)CC)cc5[o+]c5cc(N(CC)CC)ccc45)cc-3oc2c1
Discrete label: inactive

stdin: Per the records of this test, what outcome belongs to CSc1ccc(C2=NN(C(=O)c3ccc(N)cc3)C(c3ccc(F)cc3)C2)cc1 (centres undefined) ?
stdout: inactive

stdin: State the result this test recorded for CON .
stdout: inactive
